Values from patent US20260297042A1

assayed.system: WEE1 (Homo sapiens)
Construct: purchased Thermo Fisher PR7373A
Sequence (P30291 whole entry): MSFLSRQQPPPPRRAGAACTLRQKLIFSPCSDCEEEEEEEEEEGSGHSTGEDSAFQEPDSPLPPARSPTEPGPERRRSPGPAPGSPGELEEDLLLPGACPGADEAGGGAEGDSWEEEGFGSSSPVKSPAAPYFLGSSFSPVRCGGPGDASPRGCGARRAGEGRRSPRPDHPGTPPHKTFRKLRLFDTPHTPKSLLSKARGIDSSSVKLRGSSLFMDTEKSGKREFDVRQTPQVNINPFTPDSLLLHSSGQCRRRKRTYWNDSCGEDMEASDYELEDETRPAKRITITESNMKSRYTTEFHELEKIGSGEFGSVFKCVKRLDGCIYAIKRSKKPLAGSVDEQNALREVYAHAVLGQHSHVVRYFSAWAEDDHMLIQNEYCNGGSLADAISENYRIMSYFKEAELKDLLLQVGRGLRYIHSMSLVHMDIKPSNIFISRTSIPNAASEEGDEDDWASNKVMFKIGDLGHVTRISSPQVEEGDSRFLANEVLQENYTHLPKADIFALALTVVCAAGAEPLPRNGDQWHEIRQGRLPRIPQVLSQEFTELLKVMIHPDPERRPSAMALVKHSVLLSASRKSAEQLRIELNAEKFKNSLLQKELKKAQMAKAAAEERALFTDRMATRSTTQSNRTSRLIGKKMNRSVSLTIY
test.summary: Selectivity versus WEE1 assay (ADP-Glo enzymatic assay)
Assay type: biochemical
condition.info: fold difference in selectivity for PKMYT1 over WEE1; banded; ">N" = at least in this band but could be higher
Protocol: Selectivity versus WEE1 assay: Selectivity was established using the same format as outlined for PKMYT1. […] After 60 minutes the luminescence signal was read on a PHERAStar FS microplate reader (BMG Labtech). Data analysis: Data was captured and analysed within the Dotmatics Studies software module where dose response curves were generated and IC50 values determined. […]
Structures can show the parent of a compound that is named as a salt.

{"columns": ["compound", "PKMYT1 vs. WEE1 selectivity"],
 "data": [
  ["Cc1ccc(O)c(C)c1NC(=O)c1cnc(Nc2cc3n(n2)CCN(C)C3=O)s1", "X (100-<1000 fold)"],
  ["Cc1ccc(O)c(C)c1NC(=O)c1cnc(Nc2ccn(CC(=O)NCCCO)n2)s1", "Y (1000-5000 fold)"],
  ["Cc1ccc(O)c(C)c1NC(=O)c1cnc(Nc2ccn(C3CCN(C(=O)OC(C)(C)C)CC3)n2)s1", ">X (100-<1000 fold)"],
  ["Cc1ccc(O)c(C)c1NC(=O)c1cnc(Nc2cccc(NC(=O)C(C)(C)C)n2)s1", "Y (1000-5000 fold)"],
  ["Cc1ccc(O)c(C)c1NC(=O)c1cnc(Nc2ccn([C@@H]3CCN(C(=O)NC4CC4)C3)n2)s1", ">X (100-<1000 fold)"],
  ["Cc1ccc(O)c(C)c1NC(=O)c1cnc(Nc2nn(C)c3cc(Br)ccc23)s1", "X (100-<1000 fold)"],
  ["Cc1ccc(O)c(C)c1NC(=O)c1cnc(Nc2ccn(CC(=O)N3CCN(C4CCCCC4)CC3)n2)s1", "Y (1000-5000 fold)"],
  ["Cc1cnc(Nc2ncc(C(=O)Nc3c(C)ccc(O)c3C)s2)s1", "X (100-<1000 fold)"],
  ["Cc1ccc(O)c(C)c1NC(=O)c1cnc(Nc2ccn(C)n2)s1", "X (100-<1000 fold)"],
  ["Cc1ccc(O)c(C)c1NC(=O)c1cnc(Nc2ccn(CC(=O)N3CC4C(C3)C4(F)F)n2)s1 (stereo not drawn)", "Y (1000-5000 fold)"],
  ["Cc1cn(CC(=O)N2CCN(C)CC2)nc1Nc1ncc(C(=O)Nc2c(C)ccc(O)c2C)s1", "Y (1000-5000 fold)"],
  ["COCC(=O)N1CC[C@@H](n2ccc(Nc3ncc(C(=O)Nc4c(C)ccc(O)c4C)s3)n2)C1", ">X (100-<1000 fold)"],
  ["Cc1ccc(O)c(C)c1NC(=O)c1cnc(Nc2ccn(CC(C)C)n2)s1", "W (10-<100 fold)"],
  ["Cc1ccc(O)c(C)c1NC(=O)c1cnc(NCc2ccccc2C2CC2)s1", "W (10-<100 fold)"],
  ["Cc1ccc(O)c(C)c1NC(=O)c1cnc(Nc2ccc(C(F)(F)F)cn2)s1", "Y (1000-5000 fold)"],
  ["Cc1ccc(O)c(C)c1NC(=O)c1cnc(Nc2ccn(CC(=O)N3CCCN(C)CC3)n2)s1 [BAA-171, (hydrochloride)]", "X (100-<1000 fold)"],
  ["Cc1ccc(O)c(C)c1NC(=O)c1cnc(Nc2cccc(-c3ccc(C(F)(F)F)cc3)n2)s1", "Y (1000-5000 fold)"],
  ["Cc1ccc(O)c(C)c1NC(=O)c1cnc(Nc2ccn([C@@H]3CCN(Cc4ccccc4)C3)n2)s1", ">X (100-<1000 fold)"],
  ["Cc1ccc(O)c(C)c1NC(=O)c1cnc(NCC2CCN(C(=O)Cc3ccc(Cl)cc3)CC2)s1", ">X (100-<1000 fold)"],
  ["Cc1ccc(O)c(C)c1NC(=O)c1cnc(Nc2ccn(CC(=O)N3CCC4(CCNC4)CC3)n2)s1", "X (100-<1000 fold)"],
  ["Cc1ccc(O)c(C)c1NC(=O)c1cnc(Nc2cc(C)n(CCC(N)=O)n2)s1", "W (10-<100 fold)"],
  ["Cc1ccc(NC(=O)OC(C)(C)C)nc1Nc1ncc(C(=O)Nc2c(C)ccc(O)c2C)s1", "Y (1000-5000 fold)"],
  ["Cc1ccc(O)c(C)c1NC(=O)c1cnc(Nc2ccn(CC(N)=O)n2)s1", "X (100-<1000 fold)"]
]}
